Test system: CP335
Measurement protocol: qHTS profiling for inhibitors of Plasmodium falciparum proliferation (AID 504749); further: nearly all actives have a fitted effect of over 60% in size
Stated conditions: P. falciparum in erythrocytes, SYBR Green DNA, 72 h; series mostly up to 28.7 µM
Results filed as inconclusive are left out. Activity calls are given as the source filed them. The call rests on the fitted dose curve; in most records, active means well fitted inhibition curve with a large enough effect; inconclusive means small, poorly fitted or top-dose-only effect; inactive means flat fitted curve, though single readings scatter.
Your reply should match one of these outcome classes. label 1 = active, label 0 = inactive

Record excerpt, results attached:
-- ask Which outcome did this test record for the molecule `O=P(O)(O)OC[C@H]1O[C@](O)(COP(=O)(O)O)[C@@H](O)[C@@H]1O` ?
-- reply label 0

-- ask Which outcome did this test record for the molecule `CN1CCC(OC(=O)C(Oc2ccc(Cl)cc2)Oc2ccc(Cl)cc2)CC1` ?
-- reply label 0

-- ask Which outcome did this test record for the molecule `CC(/C=C/C=C(\C)C(=O)O[C@@H]1O[C@H](CO[C@@H]2O[C@H](CO)[C@@H](O)[C@H](O)[C@H]2O)[C@@H](O)[C@H](O)[C@H]1O)=C\C=C\C=C(C)\C=C\C=C(/C)C(=O)O[C@@H]1O[C@H](CO[C@@H]2O[C@H](CO)[C@@H](O)[C@H](O)[C@H]2O)[C@@H](O)[C@H](O)[C@H]1O` ?
-- reply label 0

-- ask Which outcome did this test record for the molecule `CC(C)O` ?
-- reply label 0

-- ask Which outcome did this test record for the molecule CCC(C)[C@@H](N)C(=O)O (some centres not stated) ?
-- reply label 0

Continuing:
-- ask Which outcome did this test record for the molecule `CC/C=C\C/C=C\C/C=C\C/C=C\C/C=C\C/C=C\CCC(=O)O` ?
-- reply label 0

----------
Measurement protocol: Cell Viability - LYMP2-011 (AID 969)
Stated conditions: LYMP2-011 lymphoblastoid cells viability; series mostly up to 92.2 µM
Inconclusive results are not listed. The source made the active and inactive calls. The call rests on the fitted dose curve; in most records, active means well fitted cell-killing curve with a large enough effect; inconclusive means small, poorly fitted or top-dose-only effect; inactive means flat fitted curve, though single readings scatter.
Your reply should match one of these outcome classes. yes for active, no for inactive

-- ask Which outcome did this test record for the compound `[O-][N+](=Nc1ccccc1)c1ccccc1` ?
-- reply no

-- ask Which outcome did this test record for the compound `CC(C)O` ?
-- reply no

Continuing:
-- ask Which outcome did this test record for the compound `CCCCO` ?
-- reply no

-- ask Which outcome did this test record for the compound `ClC(Cl)Cl` ?
-- reply no

-- ask Which outcome did this test record for the compound CC1=CCC2CC1C2(C)C (stereo not given) ?
-- reply no

-- ask Which outcome did this test record for the compound `OC[C@H]1O[C@@H]2O[C@H]3[C@H](O)[C@@H](O)[C@@H](O[C@H]4[C@H](O)[C@@H](O)[C@@H](O[C@H]5[C@H](O)[C@@H](O)[C@@H](O[C@H]6[C@H](O)[C@@H](O)[C@@H](O[C@H]7[C@H](O)[C@@H](O)[C@@H](O[C@H]1[C@H](O)[C@H]2O)O[C@@H]7CO)O[C@@H]6CO)O[C@@H]5CO)O[C@@H]4CO)O[C@@H]3CO` ?
-- reply no

-- ask Which outcome did this test record for the compound `COC(=O)c1ccccc1O` ?
-- reply no

----------
System: CP191
Measurement protocol: qHTS profiling for inhibitors of Plasmodium falciparum proliferation (AID 504749); further: nearly all actives have a fitted effect of over 60% in size
Stated conditions: P. falciparum in erythrocytes, SYBR Green DNA, 72 h; series mostly up to 28.7 µM
Results filed as inconclusive are left out. The source made the active and inactive calls. Calls follow the shape of the dose curve; as a rule, active = well fitted inhibition curve with a large enough effect; inconclusive = small, poorly fitted or top-dose-only effect; inactive = flat fitted curve, though single readings scatter.
Your reply should match one of these outcome classes. 1.0 (active), 0.0 (inactive)

Record excerpt, results attached:
-- ask Which outcome did this test record for the compound `CN(C)C=Nc1c(I)cc(I)c(CCC(=O)O)c1I` ?
-- reply 0.0

-- ask Which outcome did this test record for the compound `CC(=O)c1ccc2c(c1)N(CCCN1CCN(CCO)CC1)c1ccccc1S2` ?
-- reply 1.0

Continuing:
-- ask Which outcome did this test record for the compound CC(C)CCCC(C)NC(C)C (stereo not drawn) ?
-- reply 0.0

-- ask Which outcome did this test record for the compound `O=P(O)(O)O` ?
-- reply 0.0

----------
System: DIV14
Measurement protocol: qHTS profiling for inhibitors of Plasmodium falciparum proliferation (AID 504749); further: nearly all actives have a fitted effect of over 60% in size
Stated conditions: P. falciparum in erythrocytes, SYBR Green DNA, 72 h; series mostly up to 28.7 µM
Records with an inconclusive call do not appear. The source made the active and inactive calls. Calls come from the whole dose curve; as a rule, active = well fitted inhibition curve with a large enough effect; inconclusive = small, poorly fitted or top-dose-only effect; inactive = flat fitted curve, though single readings scatter.
Your reply should match one of these outcome classes. active, inactive

-- ask Which outcome did this test record for the compound `S=C=Nc1ccc(N=C=S)cc1` ?
-- reply inactive

----------
Tested on: CP268
Measurement protocol: qHTS profiling for inhibitors of Plasmodium falciparum proliferation (AID 504749); further: nearly all actives have a fitted effect of over 60% in size
Stated conditions: P. falciparum in erythrocytes, SYBR Green DNA, 72 h; series mostly up to 28.7 µM
Results filed as inconclusive are left out. The source made the active and inactive calls. The call rests on the fitted dose curve; in most records, active means well fitted inhibition curve with a large enough effect; inconclusive means small, poorly fitted or top-dose-only effect; inactive means flat fitted curve, though single readings scatter.
Your reply should match one of these outcome classes. active, inactive

Record excerpt, results attached:
-- ask Which outcome did this test record for the compound `O[C@@H]([C@H](O)[C@H](O)CBr)[C@H](O)CBr` ?
-- reply inactive

-- ask Which outcome did this test record for the compound `CC(C)c1ncc([N+](=O)[O-])n1C` ?
-- reply inactive

-- ask Which outcome did this test record for the compound c1ccc2c(c1)OCC(CN1CCCCC1)O2 (stereo not drawn) ?
-- reply inactive

-- ask Which outcome did this test record for the compound `OCl` ?
-- reply inactive

Continuing:
-- ask Which outcome did this test record for the compound C=CCN1CCCC1CNC(=O)c1cc(S(N)(=O)=O)cc(OC)c1OC (stereo not drawn) ?
-- reply inactive

-- ask Which outcome did this test record for the compound CC1C(=O)CC2C3(C)CCC2(C(C)C(=O)O)C(=O)C13 (stereo not drawn) ?
-- reply inactive

-- ask Which outcome did this test record for the compound CCCCC(CC)CCC(CC(C)C)OS(=O)(=O)O (stereo not drawn) ?
-- reply inactive

-- ask Which outcome did this test record for the compound `CC(=O)Nc1ccc(OC(C)=O)cc1` ?
-- reply inactive

-- ask Which outcome did this test record for the compound CC(CNC(=O)c1cccnc1)NC(=O)c1cccnc1 (stereo not drawn) ?
-- reply inactive

-- ask Which outcome did this test record for the compound `O=C(O)CCC(=O)c1ccc(-c2ccccc2)cc1` ?
-- reply inactive

-- ask Which outcome did this test record for the compound `Cn1cc(NC(=O)c2cc(NC(=O)c3cc(NC=O)cn3C)cn2C)cc1C(=O)NCCC(=N)N` ?
-- reply active

-- ask Which outcome did this test record for the compound `Oc1cc(O)cc(O)c1` ?
-- reply inactive

-- ask Which outcome did this test record for the compound CC12CCC(C1)C(C)(C)C2=O (stereo not drawn) ?
-- reply inactive

----------
System: AS120
Measurement protocol: qHTS profiling for inhibitors of Plasmodium falciparum proliferation (AID 504749); further: nearly all actives have a fitted effect of over 60% in size
Stated conditions: P. falciparum in erythrocytes, SYBR Green DNA, 72 h; series mostly up to 28.7 µM
Records with an inconclusive call do not appear. Activity calls are given as the source filed them. Calls follow the shape of the dose curve; as a rule, active = well fitted inhibition curve with a large enough effect; inconclusive = small, poorly fitted or top-dose-only effect; inactive = flat fitted curve, though single readings scatter.
Your reply should match one of these outcome classes. True = active, False = inactive

Record excerpt, results attached:
-- ask Which outcome did this test record for the compound `O=C(O)c1ccc(OCCn2ccnc2)cc1` ?
-- reply False

-- ask Which outcome did this test record for the compound CC(C)CCCC(C)NC(C)C (stereo unspecified) ?
-- reply False

-- ask Which outcome did this test record for the compound CCC(C)[C@@H](N)C(=O)O (stereo partly specified) ?
-- reply False

Continuing:
-- ask Which outcome did this test record for the compound `O=C(NNCS(=O)(=O)O)c1ccncc1` ?
-- reply False

-- ask Which outcome did this test record for the compound CC12CCC(C1)C(C)(C)C2=O (stereo unspecified) ?
-- reply False

-- ask Which outcome did this test record for the compound `COc1ccc2c(=O)c(C)c(-c3ccccc3)oc2c1CN(C)C` ?
-- reply False

-- ask Which outcome did this test record for the compound `CCCCC` ?
-- reply False

-- ask Which outcome did this test record for the compound `CNC(=O)C[C@@H](N)C(=O)N[C@@H](C(=O)N[C@@H]1C(=O)N2[C@@H]1SC(C)(C)[C@@H]2C(=O)O)c1ccc(O)cc1` ?
-- reply False

-- ask Which outcome did this test record for the compound `O=C(CCCCCCCCCCCCC1CCCC1)Nc1ccc(S(=O)(=O)c2ccc(NC(=O)CCCCCCCCCCCCC3CCCC3)cc2)cc1` ?
-- reply False

-- ask Which outcome did this test record for the compound COc1cc2c(cc1OC)[C@@H](Cc1cc(OC)c(OC)c(OC)c1)[N+](C)(CCCOC(=O)CC/C=C/CCC(=O)OCCC[N+]1(C)CCc3cc(OC)c(OC)cc3[C@H]1Cc1cc(OC)c(OC)c(OC)c1)CC2 (stereo partly specified) ?
-- reply False

----------
Measurement protocol: Drug repurposing screens with cells derived from glioblastoma tumor samples (AID 1345199); further: on the % scale 0 is the no-effect control and ±100 the full control effect; nearly all actives have a fitted effect of over 40% in size
Stated conditions: GBM patient neurospheres viability, ATP luminescence, 48 h; at 46.1 µM (top of the series); tumour line C
Description: CD133+ cells were isolated from GBM patient biopsies and cultured as neurospheres. Neurospheres from four patients were used to screen the NCATS pharmaceutical collection (NPC) library of approved drugs and bioactive compounds. […] The neurospheres were incubated with drugs for 48 hours in 1536-well format, then assayed with an ATP content cell viability assay. […]
Records with an inconclusive call do not appear.
Entries and their measured activity, negative = cell killing follow.
Respond numerically; units are % and should not be typed.

-- ask Note activity, negative = cell killing for the compound shown: CCC(C)[C@@H](N)C(=O)O (some centres undefined)
-- reply 10.2

-- ask Note activity, negative = cell killing for the compound shown: `Cc1ncc(C[n+]2csc(CCOP(=O)(O)O)c2C)c(N)n1`
-- reply -10.8

-- ask Note activity, negative = cell killing for the compound shown: `O=C(CCCCCCCCCCCCC1CCCC1)Nc1ccc(S(=O)(=O)c2ccc(NC(=O)CCCCCCCCCCCCC3CCCC3)cc2)cc1`
-- reply -32.4

Continuing:
-- ask Note activity, negative = cell killing for the compound shown: CC(O)CN(C)C (centres undefined)
-- reply -3.25

-- ask Note activity, negative = cell killing for the compound shown: `O=C1c2ccccc2C(=O)C1c1ccc(Cl)cc1`
-- reply -10.5

-- ask Note activity, negative = cell killing for the compound shown: `CC1=C[C@H](O)CC(C)(C)[C@H]1/C=C/C(C)=C/C=C/C(C)=C/C=C/C=C(C)/C=C/C=C(C)/C=C/C1=C(C)C[C@@H](O)CC1(C)C`
-- reply -27.4

-- ask Note activity, negative = cell killing for the compound shown: `CCCCCCCCCCCCOCCCN`
-- reply -14.6

-- ask Note activity, negative = cell killing for the compound shown: `CNCC(=O)N[C@@H](CCCN=C(N)N)C(=O)N[C@H](C(=O)N[C@@H](Cc1ccc(O)cc1)C(=O)N[C@H](C(=O)N[C@@H](Cc1cnc[nH]1)C(=O)N1CCC[C@H]1C(=O)N[C@@H](C)C(=O)O)C(C)C)C(C)C`
-- reply -6.49

-- ask Note activity, negative = cell killing for the compound shown: `COc1ccc2c(=O)c(C)c(-c3ccccc3)oc2c1CN(C)C`
-- reply -17.7
